test: soluble on expression in E. coli; label from the status in PepcDB or PDB records
recorded-metric: soluble on expression in E. coli

Worked set:
[[record]]
chain_sequence = "MGSDKIHHHHHHMAWTSAQGATAAMTVVDGVTGLPIAGATVVSAGAERVTANDGTFMMPMDGPDGGIAMTVRAPGYARLETVANGTTPRAIALAPLLAEEAARMGFDEVQFDYLRFPDAPGLRFSETNTSARRVAAITGFLSAARDRLRHYNIYLSADIFGYVCWNLDDTAIGQQLETLVVLSTTFHRCCIRPVSPSGWRRSGATSHPSRRGLP"
recorded_metric = "soluble on expression in E. coli"
val = "not soluble"

[[record]]
chain_sequence = "SNAPLKEQKVINTANIKTNSKLDLAEYENGLINIATQQFDTESHVLQLNQYIPEKLIDELVAKVEAPVLTNIIEQDYFGKQNSNELSLSGVMIGLAMSSSVSNEEAMSKGTEVAKQLIEAINKNDKYNKSPITFAIFKQESTSSLKNGTYIASATVQKNDTNLGNWSTIDEKSYSYPSDEFTQAHGEDNTKINNFAKEIKGFSNGDFIPVNAKVSYKKDQMDTLNMNIVIKYNGKTELMALTQLAAQGMLDKLPKDAKVQLQIKSESKIEAVIIKEKNSDKPFVSFL"
recorded_metric = "soluble on expression in E. coli"
val = "soluble"

[[record]]
chain_sequence = "MSLTGMLKRKVIVVSGVGPGLGTTLAHRCARDGADLVLAARSAERLDDVAKQIIDTGRRAVAVRTDITDDDDVSNLVQATLAAYGKADVLINNAFRVPSMKPLAGTTFEHIRDAIELSALGTLRLIQAFTPALAQSHGAIVNVNSMVIRHSQPKYGTYKMAKSVLLAMSHSLATELGEQGIRVNSVAPGYIWGDTLKSYFDHQAGKYGTTVDQIYQATAANSDLKRLPTEDEVASAILFLASDLASGITGQTLDVNCGEYHTEGHHHHHH"
recorded_metric = "soluble on expression in E. coli"
val = "soluble"

[[record]]
chain_sequence = "MGNKIAVIPGTFDPITNGHLDIIERAAKIFDVLYVSVLNNSSKKPLFTVEERMEMIKQVTAHLPNVHVESASGLTVDYAAKRGATAIVRGLRAVSDFEYEMQIASMNRTLNADIETFFVMTNTKYSFLSSSMVKEVAQYQGDIRELVPEVVNKAVKAKFNK"
recorded_metric = "soluble on expression in E. coli"
val = "not soluble"

[[record]]
chain_sequence = "MDPLLTLLYIRHTLTSPWSSSEERDTAKAAMMEEMEKHNMAPYIRLVCEALGVPLDESKLAEMDAINAKKVAAFDARLKDAVDNLGDTEVRDVLQAKCDHYARIGDLEMCMKTNEECAAKTLATGPKLDLYFQRIRLGIAFSDNDIAAKGITDAHRLMKDGDWERRNRLRVYEGIYHVFIRDFQRGSTLLLDSITTFAAGELLTFQDFVFITVVASLPVLSRPELRKRIVYSPEVNRTGVDDVRELVNSIYDCQYNKVFPNLEVVCQHLRKVVYLSPHVSYFFREMRVLIFTQFLDSYSSVTLESMGAAFGIPVPALDSMLCTLISNERIACKVDRVDGSVETYRGDTTNFDYHRIVKSGDLLLNRIQKLSRLVDM"
recorded_metric = "soluble on expression in E. coli"
val = "not soluble"


# input for lookup
Endpoint output: soluble on expression in E. coli of MGSSHHHHHHDYDIPTTENLYFQGGGGGGMRAAVVYKTDGHVKRIEEALKRLEVEVELFNQPSEELENFDFIVSVGGDGTILRILQKLKRCPPIFGINTGRVGLLTHASPENFEVELKKAVEKFEVERFPRVSCSAMPDVLALNEIAVLSRKPAKMIDVALRVDGVEVDRIRCDGFIVATQIGSTGYAFSAGGPVVEPYLECFILIPIAPFRFGWKPYVVSMERKIEVIAEKAIVVADGQKSVDFDGEITIEKSEFPAVFFKNEKRFRNLFGKVRSIG . Value?
soluble

====

test: soluble on expression in E. coli; label from the status in PepcDB or PDB records
recorded-metric: soluble on expression in E. coli

Worked set:
[[record]]
chain_sequence = "MAHHHHHHMWRRGVAAVPLPLWQGKLLQLVHHRALSTDTTGDEATAWSRAMEAKYGTGTYKLFRPLYKDLSDEMRLEAYTKPPAPMQGWSVHHDEAVNLAIFSHKGDSRSRTARVVAYSPITVENPESLNPLLYFMDWYPINVLMERNGVVVHFSIASTEGGMHMRNVRVYKAQDELSPNDPEKQDLPNRDSECERLMSTTDDAAWVRHNLYYDGPCLWHLELDMLNELYDVMQDHGVTLDWVRWVAEWVHYLEHVSYVRWALGVLQELIPVDERGPEDDFLTFEEKEALATPPEEWLEAHYI"
val = "not soluble"

[[record]]
chain_sequence = "VSKAVQYMAKRRIGALIVFEKETGLQDYIETGIPMNSDISQELLTNVFIPNTPLHDGAMIIQGSKIAVAASYLPLSDSVKISKSLGTRHRAAVGISEVSDAFTVVVSEETGDISVTFDGKLRRDISKDVFEELLAEHWFGAHFQKKGVNS"
val = "not soluble"

[[record]]
chain_sequence = "MPKKRENRGRRKGDKGHVGYISCDQCGARVPEDKAVCVTKMYSPVDASLASELEKKGAIIARYPVTKCYCVNCAVFLGIIKIRAENERKQKARLRLEHHHHHH"
val = "not soluble"

[[record]]
chain_sequence = "MLKANVFCAGPVEALILDWAGTTIDFGSLAPVYAFMELFKQEGIEVTQAEAREPMGTEKSEHIRRMLGNSRIANAWLSIKGQASNEEDIKRLYDLFAPIQTRIVAQRSQLIPGWKEVFDKLIAQGIKVGGNTGYGPGMMAPALIAAKEQGYTPASTVFATDVVRGRPFPDMALKVALELEVGHVNGCIKVDDTLPGIEEGLRAGMWTVGVSCSGNEVGLDREDWQALSSDEQQSYRQHAEQRLFNAGAHYVIDSVADLETVITDVNRRLARGEKP"
val = "soluble"

[[record]]
chain_sequence = "MSTLLAILFLLPFYTFSLNKKPEEVLKGLYPSAEIEVEDIILTEEQVKEVEKLSGTKLNTRFVTFYIVKKDGKVLAYGYVDIHRVRTKPEAVLYVISPKGKIELIEVLAFHEPLEYLPPKNWLKLFEGKDINAPLRVKKDIPNVTGATLTARAITKNAKKVLALWQVLFGGKE"
val = "not soluble"


Endpoint output: soluble on expression in E. coli of MPKVNLYATFRDLTGKSQLELPGATVGEVLENLVRAYPALKEELFEGEGLAERVSVFLEGRDVRYLQGLSTPLSPGATLDLFPPVAGGGFERTFGAFPPWLLERYLEEWGGTREGEGVYRLPGAVVRFREVEPLKVGSLSIPQLRVEVEGEEAERWFERIAFAASRGGG . Value?
soluble

And for SMGAGGGGSAEQLDALVKKDKVVVFLKGTPEQPQCGFSNAVVQILRLHGVRDYAAYNVLDDPELRQGIKDYSNWPTIPQVYLNGEFVGGCDILLQMHQNGDLVEELKKLGIHSALLDE ?
soluble

====

assay: soluble on expression in E. coli; label from the status in PepcDB or PDB records
recorded-metric: soluble on expression in E. coli

[[record]]
chain_sequence = "MSLETQDHTLYVLLGPTGVGKTDLSLDIAERLGSPIISADSRQIFRELPIGTAAPTPEQRARVPHLFVGTHSVRDYYSAGMYEVEVLEALKELFRKYRGVLLTGGSMMYIDAVCRGIDDIPDPFPEVREELYARYAAEGLDGILAQLRLLDPDYYAKVDRRNYKRVIHGLEICLSTGRPFSSFHRHEAKERPFRIVKIGLYREREELCKRIDARVLEMMEQGLEEEARAVYPLRHLNALNTVGYKEMFEYFDGSIDRAEAVRRIQRNSRVYARKQMTWFRRDSTIRWFHPEADKGTVLTLVTEGHHHHHH"
val = "soluble"

[[record]]
chain_sequence = "SPTPVELHKVTLYKDSGMEDFGFSVADGLLEKGVYVKNIRPAGPGDLGGLKPYDRLLQVNHVRTRDFDCCLVVPLIAESGNKLDLVISRNP"
val = "soluble"

